Origin of values: paper PMC7529893

- study_target: MAGE-A11:PCF11 interaction (GST-MAGE-A11 and FAM-PCF11_4) (Homo sapiens, UniProt P43364)
- Construct: GST-MAGE-A11 MHD (human MAGE-A11 MHD amino acid 218-429); made in house; host or cells: E. coli BL21(DE3)
- Sequence (P43364 218-429): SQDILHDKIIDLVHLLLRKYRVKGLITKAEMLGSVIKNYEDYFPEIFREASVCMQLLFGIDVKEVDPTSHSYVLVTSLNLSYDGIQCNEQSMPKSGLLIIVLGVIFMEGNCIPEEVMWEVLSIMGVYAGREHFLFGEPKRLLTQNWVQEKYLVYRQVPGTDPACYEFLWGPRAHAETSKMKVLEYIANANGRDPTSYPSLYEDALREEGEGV
- protocol_details: TR-FRET primary / single point screen at 15 µM
- Format: binding
- test_settings: single point TR-FRET screening of 797 quinoline compounds against MAGE-A11:PCF11
Provide the reported percent inhibition (TR-FRET) of each item.
Give bare numbers.

CCCN(CCCNc1c2ccc(Cl)cc2nc2ccc(OC)cc12)Cc1ccc(F)cc1 [SJ000520946] ... -141.659
FC(F)(F)Oc1ccc(CN(CCCCNc2ccnc3cc(Cl)ccc23)Cc2ccccc2)cc1 [SJ000520451] ... 39.8725
Clc1ccc2c(NCCCCN(Cc3ccccc3)Cc3ccccc3)ccnc2c1 [SJ000522718] ... 17.3464
COc1ccc2nc3cc(Cl)ccc3c(NCCCNCc3ccc(OC(F)(F)F)cc3)c2c1 [SJ000520992] ... -200.963
CCCN(CCCNc1c2ccc(Cl)cc2nc2ccc(OC)cc12)CC(CC)CC [SJ000520939] ... -160.284

Take each entry in turn and give its percent inhibition (TR-FRET).
1. CCN1CCN(c2c(S(=O)(=O)c3ccc(C)cc3)cnc3ccc(Cl)cc23)CC1 [SJ000083966]
2. Fc1cccc(C(F)(F)F)c1CN(CCCCNc1ccnc2cc(Cl)ccc12)Cc1ccccc1 [SJ000520465]
3. CCN1CCN(c2c(S(=O)(=O)c3ccc(C)cc3)cnc3ccc(OC)cc23)CC1 [SJ000083963]

Response line:
-4.358
28.7514
-3.917

###

- study_target: MAGE-A11:PCF11 interaction (GST-MAGE-A11 and FAM-PCF11_4) (Homo sapiens)
- Construct: GST-MAGE-A11 MHD (human MAGE-A11 MHD amino acid 218-429); made in house; host or cells: E. coli BL21(DE3)
- protocol_details: TR-FRET primary / single point screen at 15 µM
- Assay type: binding
- test_settings: single point TR-FRET screening of 797 quinoline compounds against MAGE-A11:PCF11
Bucketed by reported percent inhibition (TR-FRET), buckets being low bin (below -30), mid bin (-30 to below 2), high bin (2 or more)

Prompt line: Tag the class for FC(F)(F)Oc1cccc(CN(CCCCNc2ccnc3cc(Cl)ccc23)Cc2ccccc2)c1
Response line: high bin

Prompt line: Returns: class label. Input: COc1ccc2ncc(S(=O)(=O)c3ccc(C)cc3)c(N3CCN(Cc4ccccc4)CC3)c2c1
Response line: low bin

Prompt line: Band of Cc1ccc2ncc(S(=O)(=O)c3ccccc3)c(N3CCN(c4ccccc4F)CC3)c2c1 ?
Response line: low bin

Prompt line: Exercise: read the entry CCCN(CCCNc1c2ccc(Cl)cc2nc2ccc(OC)cc12)Cc1ccc(C)s1 and state which class it falls under.
Response line: low bin

Prompt line: Bin? CCOC(=O)c1cnc2c(C(=O)OC)cccc2c1NCCN1CCOCC1
Response line: high bin

Prompt line: Which class is correct for the following molecule? Clc1ccc2c(NCCCCN(Cc3ccccc3)Cc3ccsc3)ccnc2c1
Response line: high bin
